Every entry's value here was drawn from ChEMBL document CHEMBL5291721.

Parameter: AC50. Scope: all listed entries.
molecular target: Alpha-1A adrenergic receptor (Homo sapiens, UniProt P35348); type: functional, cell-based; also: assay procedure not described here
Sequence (P35348 whole entry): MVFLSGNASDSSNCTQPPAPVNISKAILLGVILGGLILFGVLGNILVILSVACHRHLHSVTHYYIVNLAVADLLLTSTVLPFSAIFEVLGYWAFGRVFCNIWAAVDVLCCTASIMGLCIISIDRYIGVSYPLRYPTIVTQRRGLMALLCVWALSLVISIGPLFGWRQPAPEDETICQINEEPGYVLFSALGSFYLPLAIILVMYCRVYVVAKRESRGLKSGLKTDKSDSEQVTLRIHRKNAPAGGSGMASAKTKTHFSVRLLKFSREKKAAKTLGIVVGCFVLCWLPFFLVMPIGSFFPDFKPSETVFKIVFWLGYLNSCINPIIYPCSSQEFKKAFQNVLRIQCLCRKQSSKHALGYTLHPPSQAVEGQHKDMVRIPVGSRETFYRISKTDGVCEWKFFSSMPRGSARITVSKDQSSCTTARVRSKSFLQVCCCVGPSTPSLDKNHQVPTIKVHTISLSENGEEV
Property Name: AC50

[
  {
    "Compound": "COc1ccccc1OCCNCC(O)c1ccc(C)c(S(N)(=O)=O)c1 (centres undefined)",
    "Measured Result": "0.32 µM"
  },
  {
    "Compound": "C=CCC1(CC(C)C)C(=O)NC(=O)NC1=O",
    "Measured Result": "> 30 µM"
  },
  {
    "Compound": "C[C@@H](O)[C@H]1C(=O)N2C(C(=O)O)=C(S[C@@H]3CN[C@H](C(=O)N(C)C)C3)[C@H](C)[C@H]12",
    "Measured Result": "> 300 µM"
  },
  {
    "Compound": "Clc1ccc2nsnc2c1NC1=NCCN1",
    "Measured Result": "0.0098 µM"
  },
  {
    "Compound": "Cc1ccc(-c2cc(C(F)(F)F)nn2-c2ccc(S(N)(=O)=O)cc2)cc1",
    "Measured Result": "> 30 µM"
  },
  {
    "Compound": "C/C(O)=C(\\C#N)C(=O)Nc1ccc(C(F)(F)F)cc1 [TERIFLUNOMIDE]",
    "Measured Result": "> 30 µM"
  },
  {
    "Compound": "CN(C)CCC(c1ccc(Cl)cc1)c1ccccn1 (centres undefined)",
    "Measured Result": "> 30 µM"
  },
  {
    "Compound": "CCCN1C[C@H](CSC)C[C@@H]2c3cccc4[nH]cc(c34)C[C@H]21 [PERGOLIDE]",
    "Measured Result": "0.33 µM"
  },
  {
    "Compound": "CNS(=O)(=O)Cc1ccc2[nH]cc(CCN(C)C)c2c1",
    "Measured Result": "> 30 µM"
  },
  {
    "Compound": "OC(CNCC(O)C1CCc2cc(F)ccc2O1)C1CCc2cc(F)ccc2O1 (centres undefined)",
    "Measured Result": "> 30 µM"
  },
  {
    "Compound": "COc1ccc2c3c1O[C@H]1C(=O)CC[C@@]4(O)[C@@H](C2)N(C)CC[C@]314",
    "Measured Result": "> 30 µM"
  },
  {
    "Compound": "Cc1cn([C@H]2C=C[C@@H](CO)O2)c(=O)[nH]c1=O",
    "Measured Result": "> 30 µM"
  },
  {
    "Compound": "CN1C(=O)C(O)N=C(c2ccccc2)c2cc(Cl)ccc21 (centres undefined)",
    "Measured Result": "> 30 µM"
  },
  {
    "Compound": "O=C(O)C1=C(CSc2nnnn2CS(=O)(=O)O)CS[C@@H]2[C@H](NC(=O)[C@H](O)c3ccccc3)C(=O)N12",
    "Measured Result": "> 30 µM"
  },
  {
    "Compound": "Nc1nc(Cl)nc2c1ncn2[C@H]1C[C@H](O)[C@@H](CO)O1",
    "Measured Result": "> 30 µM"
  },
  {
    "Compound": "O=C1C(O)=C([C@H]2CC[C@H](c3ccc(Cl)cc3)CC2)C(=O)c2ccccc21",
    "Measured Result": "> 30 µM"
  },
  {
    "Compound": "C[C@@H]1O[C@@H](O[C@@H]2C=C3CC[C@@H]4[C@H](CC[C@]5(C)[C@@H](c6ccc(=O)oc6)CC[C@]45O)[C@@]3(C)CC2)[C@H](O)[C@H](O)[C@H]1O",
    "Measured Result": "> 30 µM"
  },
  {
    "Compound": "Brc1c(NC2=NCCN2)ccc2nccnc12",
    "Measured Result": "0.645 µM"
  },
  {
    "Compound": "COc1cc2c(N)nc(N3CCN(C(=O)OCC(C)(C)O)CC3)nc2c(OC)c1OC",
    "Measured Result": "> 30 µM"
  },
  {
    "Compound": "C#C[C@]1(O)CC[C@H]2[C@@H]3CCC4=Cc5oncc5C[C@]4(C)[C@H]3CC[C@@]21C",
    "Measured Result": "> 30 µM"
  },
  {
    "Compound": "CCCCc1ncc(/C=C(\\Cc2cccs2)C(=O)O)n1Cc1ccc(C(=O)O)cc1",
    "Measured Result": "> 30 µM"
  },
  {
    "Compound": "CN1CCN(CC/C=C2/c3ccccc3Sc3ccc(S(=O)(=O)N(C)C)cc32)CC1",
    "Measured Result": "> 30 µM"
  },
  {
    "Compound": "Cn1c(=O)c2c(ncn2CC2OCCO2)n(C)c1=O",
    "Measured Result": "> 30 µM"
  },
  {
    "Compound": "CC[C@H]1OC(=O)[C@H](C)[C@@H](O[C@H]2C[C@@](C)(OC)[C@@H](O)[C@H](C)O2)[C@H](C)[C@@H](O[C@@H]2O[C@H](C)C[C@H](N(C)C)[C@H]2O)[C@](C)(O)C[C@@H](C)CN(C)[C@H](C)[C@@H](O)[C@]1(C)O",
    "Measured Result": "> 30 µM"
  },
  {
    "Compound": "CC[C@@H](C(N)=O)N1CCCC1=O",
    "Measured Result": "> 30 µM"
  },
  {
    "Compound": "CCOc1ccccc1OCC1CNCCO1 (centres undefined)",
    "Measured Result": "> 30 µM"
  },
  {
    "Compound": "CCN1CCN(C(=O)N[C@@H](C(=O)N[C@@H]2C(=O)N3C(C(=O)O)=C(CSc4nnnn4C)CS[C@H]23)c2ccc(O)cc2)C(=O)C1=O",
    "Measured Result": "> 30 µM"
  },
  {
    "Compound": "Nc1nc(/C(=C/CC(=O)O)C(=O)N[C@@H]2C(=O)N3C(C(=O)O)=CCS[C@H]23)cs1",
    "Measured Result": "> 30 µM"
  },
  {
    "Compound": "CN(C)CC/C=C1\\c2ccccc2CSc2ccccc21 [DOTHIEPIN]",
    "Measured Result": "> 30 µM"
  },
  {
    "Compound": "COc1ccc(CCNCC(O)COc2cccc(C)c2)cc1OC (centres undefined)",
    "Measured Result": "> 30 µM"
  },
  {
    "Compound": "CC(=O)Nc1ccc(O)cc1",
    "Measured Result": "> 30 µM"
  },
  {
    "Compound": "Cc1nc([N+](=O)[O-])cn1-c1ccc([N+](=O)[O-])cc1",
    "Measured Result": "> 30 µM"
  },
  {
    "Compound": "CC1=C(C(=O)O)N2C(=O)[C@@H](NC(=O)[C@H](N)c3ccccc3)[C@H]2SC1 [CEPHALEXIN ANHYDROUS]",
    "Measured Result": "> 30 µM"
  },
  {
    "Compound": "COc1ccc(-c2ccc3cc(C(=O)O)ccc3c2)cc1C12CC3CC(CC(C3)C1)C2",
    "Measured Result": "> 30 µM"
  }
]
